Biological target: DCLK1 (Homo sapiens, UniProt O15075)
Sequence (O15075 1-740): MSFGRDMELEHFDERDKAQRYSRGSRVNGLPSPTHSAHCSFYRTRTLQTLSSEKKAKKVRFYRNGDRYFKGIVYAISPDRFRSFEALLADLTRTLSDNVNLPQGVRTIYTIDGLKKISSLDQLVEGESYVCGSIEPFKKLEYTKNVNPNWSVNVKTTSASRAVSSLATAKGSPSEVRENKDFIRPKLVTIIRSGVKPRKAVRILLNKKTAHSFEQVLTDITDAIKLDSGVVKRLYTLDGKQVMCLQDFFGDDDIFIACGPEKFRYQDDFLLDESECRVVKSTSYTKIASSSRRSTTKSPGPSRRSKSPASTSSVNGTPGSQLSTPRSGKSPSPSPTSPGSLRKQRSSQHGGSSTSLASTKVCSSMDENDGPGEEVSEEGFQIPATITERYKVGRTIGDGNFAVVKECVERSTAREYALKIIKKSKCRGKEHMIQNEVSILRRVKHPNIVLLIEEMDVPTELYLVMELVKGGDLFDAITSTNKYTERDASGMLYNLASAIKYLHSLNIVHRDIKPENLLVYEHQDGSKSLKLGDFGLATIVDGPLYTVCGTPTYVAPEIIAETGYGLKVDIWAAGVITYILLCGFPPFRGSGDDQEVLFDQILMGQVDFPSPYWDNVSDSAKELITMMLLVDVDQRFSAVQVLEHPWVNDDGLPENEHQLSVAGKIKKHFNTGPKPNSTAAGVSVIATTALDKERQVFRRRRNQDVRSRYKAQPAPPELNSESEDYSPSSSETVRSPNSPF
Assay: 33P-ATP DCLK1 kinase assay
Assay type: biochemical
Details: read-out: DCLK1 kinase assay IC50; 33P-ATP; ATP 50 μM (Km)
Property Label: IC50
Answer format reminder: number followed by unit.

API: value(readout= IC50, system= DCLK1 (Homo sapiens, UniProt O15075), query= CCOc1cc(N2CCC(O)CC2)ccc1Nc1ncc2c(n1)N(C)c1ccccc1C(=O)N2C [XMD8-92] ) 0.104 µM
